# Test system: CyPPO13 (Synechococcus sp. JA-3-3Ab PPO, SEQ ID NO: 4) variant F373H, MBP fusion
# ASSAY COMMENT: PPO inhibition assay
# Format: biochemical
# CONDITION NOTES: herbicide 0-5,000 nM, 50 μM substrate
pIC50: −log10 of the molar value.
PROPERTY LABEL: pIC50

> print(dat)
                                   compound  property.label  reported.value
1  COC(=O)CCNC(=O)C(C)Sc1cc(-n2c(=O)cc(C(F)(F)F)n(C)c2=O)c(F)cc1Cl (stereo not shown) [Tiafenacil]           pIC50            6.94
